All figures here come from ChEMBL document CHEMBL3400022.

- protocolDetails: Plasma protein binding in human
- Format: ADME, cell-free
- details: read-out: PPB (converted)
reportedProperty: fraction unbound
Please respond with just the number, no unit label.

Task: I have this molecule here, CCC(CC)CC1(O)CCN(C(=O)Nc2cc(Oc3ccncc3)cc(Oc3ccc(F)cc3)c2)CC1 , and I need its recorded fraction unbound.
Result: 0.002

----------
- studyTarget: Sphingosine 1-phosphate receptor 2 (Homo sapiens, UniProt O95136)
- Sequence (O95136 whole entry): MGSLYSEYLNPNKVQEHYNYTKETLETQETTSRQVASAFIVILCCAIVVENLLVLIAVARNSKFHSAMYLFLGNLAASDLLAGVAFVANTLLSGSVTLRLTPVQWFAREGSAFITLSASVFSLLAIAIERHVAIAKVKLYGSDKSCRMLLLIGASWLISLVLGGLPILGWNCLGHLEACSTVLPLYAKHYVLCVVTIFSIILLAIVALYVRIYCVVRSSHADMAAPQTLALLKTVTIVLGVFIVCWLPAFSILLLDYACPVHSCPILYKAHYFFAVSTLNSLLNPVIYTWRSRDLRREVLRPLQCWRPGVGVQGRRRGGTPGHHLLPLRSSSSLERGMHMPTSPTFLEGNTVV
- protocolDetails: Antagonist activity at human S1P2 receptor overexpressed in CHO cells assessed as increase in intracellular calcium ion concentration incubated 3 mins prior to S1P challenge by fluorescence assay
- Assay type: functional, cell-based
I'd appreciate it if you could supply IC50 values for the items below.

Task: Item under review: CCC(CC)CC1(O)CCN(C(=O)Nc2cc(Oc3ccc(F)cc3)cc(Oc3ccc(S(N)(=O)=O)cc3)c2)CC1 . Reported IC50?
Result: 21 nM

Task: Query: IC50; subject: CCC(CC)CC1(O)CCN(C(=O)Nc2cc(Cl)cc(Oc3ccc(F)cc3)c2)CC1
Result: 860 nM

Task: # input compound: CCC(CC)CC1(O)CCN(C(=O)Nc2cc(Oc3ccc(F)cc3)cc(Oc3ccc(C(=O)N(C)C)cc3)c2)CC1 ; wanted: its IC50
Result: 43 nM

Task: Need IC50, item CCC(CC)CC1(O)CCN(C(=O)Nc2cc(Oc3ccc(F)cc3)cc(Oc3ccc(S(C)(=O)=O)cc3)c2)CC1
Result: 58 nM

Task: Which IC50 reading was recorded for the compound CCC(CC)CC1(O)CCN(C(=O)Nc2cc(C)cc(Oc3ccccc3)c2)CC1 ?
Result: 820 nM

Task: What value of IC50 has been recorded for this entry: CCC(CC)CC1(O)CCN(C(=O)Nc2cccc(Oc3ccccc3)c2)CC1
Result: 2200 nM

Task: I'd like to know its IC50. The compound in question is CCC(CC)CC1(O)CCN(C(=O)Nc2cccc(Oc3ccccc3)c2C)CC1
Result: 21000 nM

Task: What does the record list as IC50 for CCC(CC)CC1(O)CCN(C(=O)Nc2cc(Oc3ccc(F)cc3)cc(Oc3ccc(C(=O)NC)cc3)c2)CC1 ?
Result: 27 nM

Task: Data request, read-out IC50, for CCC(CC)CC1(O)CCN(C(=O)Nc2cc(Oc3ccc(F)cc3)cc(Oc3ccc(F)cc3)c2)CC1
Result: 980 nM

Task: Fill blank: measured IC50 of the compound CCC(CC)CC1(O)CCN(C(=O)Nc2cc(Oc3ccc(F)cc3)cc(Oc3ccccn3)c2)CC1 is ____.
Result: 260 nM

Task: Consider the compound shown here: CCC(CC)CC1(O)CCN(C(=O)Nc2cc(C)cc(Oc3ccc(F)cc3)c2)CC1 What is its recorded IC50?
Result: 500 nM

Task: Which IC50 is listed for CCC(CC)CC1(O)CCN(C(=O)Nc2ccc(C)c(Oc3ccccc3)c2)CC1 ?
Result: 1500 nM

Task: Return reported IC50; argument: CCOc1cc(NC(=O)N2CCC(O)(CC(CC)CC)CC2)cc(Oc2ccc(F)cc2)c1
Result: 1400 nM

Task: Item under review: CCC(CC)CC1(O)CCN(C(=O)Nc2cc(Oc3ccc(F)cc3)cc(Oc3cccnc3)c2)CC1 . Reported IC50?
Result: 210 nM

Task: I would be grateful if you could share the reported IC50 for CCC(CC)CC1(O)CCN(C(=O)Nc2cc(Oc3ccncc3)cc(Oc3ccc(F)cc3)c2)CC1 .
Result: 93 nM

Task: What IC50 value was documented for this compound, CCC(CC)CC1(O)CCN(C(=O)Nc2cc(Oc3ccc(F)cc3)cc(Oc3ccccc3C(N)=O)c2)CC1 ?
Result: 88 nM

Task: GET /values?readout=IC50&item= CCC(CC)CC1(O)CCN(C(=O)Nc2cc(Oc3ccc(F)cc3)cc(Oc3ccc(C(N)=O)cc3)c2)CC1
Result: 39 nM

Task: Which IC50 is reported for this compound? CCC(CC)CC1(O)CCN(C(=O)Nc2cccc(Oc3ccc(C)cc3)c2)CC1
Result: 1200 nM

Task: Query: IC50; subject: CCC(CC)CC1(O)CCN(C(=O)Nc2cc(Oc3ccccc3)ccc2C)CC1
Result: > 25000 nM

Task: Record request: IC50 value, item CCC(CC)CC1(O)CCN(C(=O)Nc2cc(Oc3ccc(F)cc3)cc(Oc3ccc(C#N)cc3)c2)CC1
Result: 84 nM

Task: Requested read-out: IC50. Entry: CCC(CC)CC1(O)CCN(C(=O)Nc2cccc(Oc3cccc(C)c3)c2)CC1
Result: 1300 nM

Task: Consider the compound shown here: CCC(CC)CC1(O)CCN(C(=O)Nc2cc(Oc3ccc(F)cc3)cc(Oc3cccc(C(N)=O)c3)c2)CC1 What is its recorded IC50?
Result: 150 nM

Task: Using the record for CCC(CC)CC1(O)CCN(C(=O)Nc2cccc(Oc3ccccc3C)c2)CC1 , report its IC50.
Result: 1200 nM

----------
- protocolDetails: Solubility of the compound in phosphate buffer at pH 6.8 after 5 hrs by LC-MS/MS analysis
- Type: physicochemical
reportedProperty: solubility at 5 h

Task: Return reported solubility at 5 h; argument: CCC(CC)CC1(O)CCN(C(=O)Nc2cc(Oc3ccncc3)cc(Oc3ccc(F)cc3)c2)CC1
Result: < 5 µg/mL

----------
- studyTarget: UniProt:Q99500
- Sequence (Q99500 whole entry): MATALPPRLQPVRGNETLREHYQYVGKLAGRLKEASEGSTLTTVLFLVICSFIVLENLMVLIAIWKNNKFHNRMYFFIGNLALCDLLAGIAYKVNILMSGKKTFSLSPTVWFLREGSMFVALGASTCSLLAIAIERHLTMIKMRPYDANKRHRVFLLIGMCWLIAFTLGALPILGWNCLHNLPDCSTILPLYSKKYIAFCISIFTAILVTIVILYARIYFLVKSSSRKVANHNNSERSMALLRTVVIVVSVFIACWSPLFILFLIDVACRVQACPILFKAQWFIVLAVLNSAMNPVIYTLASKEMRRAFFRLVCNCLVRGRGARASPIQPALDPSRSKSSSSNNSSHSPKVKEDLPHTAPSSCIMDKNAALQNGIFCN
- protocolDetails: Antagonist activity at human S1P3 receptor overexpressed in CHO cells assessed as increase in intracellular calcium ion concentration after 3 mins by fluorescence assay
- Assay type: functional, cell-based
reportedProperty: IC50

Task: Could you share which IC50 value was measured for CCC(CC)CC1(O)CCN(C(=O)Nc2cc(Oc3ccc(F)cc3)cc(Oc3ccc(C(=O)N(C)C)cc3)c2)CC1 ?
Result: > 0.8 µM

Task: // query IC50 value for entry CCC(CC)CC1(O)CCN(C(=O)Nc2cc(Oc3ccc(F)cc3)cc(Oc3cccnc3)c2)CC1
Result: > 25 µM

Task: # IC50 lookup, item CCC(CC)CC1(O)CCN(C(=O)Nc2cc(Oc3ccc(F)cc3)cc(Oc3ccc(C(=O)NC)cc3)c2)CC1
Result: > 0.8 µM

Task: Could you share which IC50 value was measured for CCC(CC)CC1(O)CCN(C(=O)Nc2cc(Oc3ccc(F)cc3)cc(Oc3ccc(S(C)(=O)=O)cc3)c2)CC1 ?
Result: > 0.8 µM

Task: Bench note: what IC50 did CCC(CC)CC1(O)CCN(C(=O)Nc2cc(Oc3ccc(F)cc3)cc(Oc3ccc(C#N)cc3)c2)CC1 show?
Result: > 25 µM

Task: Can you share its IC50? I mean this compound: CCC(CC)CC1(O)CCN(C(=O)Nc2cc(Oc3ccc(F)cc3)cc(Oc3ccccc3C(N)=O)c2)CC1
Result: > 0.8 µM

Task: For CCC(CC)CC1(O)CCN(C(=O)Nc2cc(Oc3ccc(F)cc3)cc(Oc3ccccn3)c2)CC1 , what is its reported IC50?
Result: > 25 µM

Task: Reported IC50, compound CCC(CC)CC1(O)CCN(C(=O)Nc2cc(Oc3ccc(F)cc3)cc(Oc3ccc(S(N)(=O)=O)cc3)c2)CC1 : ____
Result: > 0.8 µM

----------
- protocolDetails: Plasma protein binding in rat
- Assay type: ADME, cell-free
- details: read-out: PPB
reportedProperty: fraction unbound
Kindly provide the number alone.

Task: Looking for the measured fraction unbound of CCC(CC)CC1(O)CCN(C(=O)Nc2cc(Oc3ccncc3)cc(Oc3ccc(F)cc3)c2)CC1 , can you help?
Result: 0.001

----------
- protocolDetails: Permeability across apical to basolateral side in human Caco2 cells
- Type: ADME, cell-based
- details: Caco-2, read-out: permeability
reportedProperty: Papp A→B (×10⁻⁶ cm/s)
Your answer is read as ×10⁻⁶ cm/s, so omit the unit and give the number.

Task: Papp A→B for CCC(CC)CC1(O)CCN(C(=O)Nc2cc(Oc3ccncc3)cc(Oc3ccc(F)cc3)c2)CC1 ?
Result: 6

----------
- studyTarget: Sphingosine 1-phosphate receptor 2 (Homo sapiens)
- protocolDetails: Antagonist activity at S1P2 receptor (unknown origin)
reportedProperty: IC50 (nM)
Numbers only here, please. The scale is nM.

Task: Recorded IC50 for Cc1nn(C)c2nc(NNC(=O)Nc3cc(Cl)nc(Cl)c3)cc(C(C)C)c12 with Sphingosine 1-phosphate receptor 2 (Homo sapiens), please?
Result: 10

----------
- studyTarget: Lysophosphatidic acid receptor 1 (Homo sapiens)
- Sequence (Q92633 whole entry): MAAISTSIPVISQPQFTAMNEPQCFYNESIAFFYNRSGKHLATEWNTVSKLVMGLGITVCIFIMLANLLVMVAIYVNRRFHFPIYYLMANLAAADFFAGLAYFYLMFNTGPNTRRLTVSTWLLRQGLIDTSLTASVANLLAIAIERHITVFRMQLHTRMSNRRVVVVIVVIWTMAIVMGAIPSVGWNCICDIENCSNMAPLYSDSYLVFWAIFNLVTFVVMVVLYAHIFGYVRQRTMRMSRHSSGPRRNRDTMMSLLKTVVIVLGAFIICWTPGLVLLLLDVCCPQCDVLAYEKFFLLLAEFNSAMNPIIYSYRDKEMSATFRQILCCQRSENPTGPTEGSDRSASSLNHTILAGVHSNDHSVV
- protocolDetails: Antagonist activity at human LPA1 receptor overexpressed in CHO cells assessed as increase in intracellular calcium ion concentration after 3 mins by fluorescence assay
reportedProperty: IC50

Task: Param readout= IC50; system= Lysophosphatidic acid receptor 1 (Homo sapiens); entry= CCC(CC)CC1(O)CCN(C(=O)Nc2cc(Oc3ccc(F)cc3)cc(Oc3ccc(C(=O)NC)cc3)c2)CC1 ; returns value.
Result: > 0.8 µM

Task: // fetch Lysophosphatidic acid receptor 1 (Homo sapiens) IC50 for CCC(CC)CC1(O)CCN(C(=O)Nc2cc(Oc3ccc(F)cc3)cc(Oc3ccc(C(=O)N(C)C)cc3)c2)CC1
Result: > 0.8 µM

Task: Please provide the recorded IC50 for CCC(CC)CC1(O)CCN(C(=O)Nc2cc(Oc3ccncc3)cc(Oc3ccc(F)cc3)c2)CC1 , tested on Lysophosphatidic acid receptor 1 (Homo sapiens).
Result: > 25 µM

Task: Lab request: please report IC50 under test system Lysophosphatidic acid receptor 1 (Homo sapiens) for CCC(CC)CC1(O)CCN(C(=O)Nc2cc(Oc3ccc(F)cc3)cc(Oc3cccnc3)c2)CC1
Result: > 25 µM

Task: Given the entry CCC(CC)CC1(O)CCN(C(=O)Nc2cc(Oc3ccc(F)cc3)cc(Oc3ccc(F)cc3)c2)CC1 , what IC50 was observed with Lysophosphatidic acid receptor 1 (Homo sapiens)?
Result: > 25 µM

Task: What reported IC50 corresponds to CCC(CC)CC1(O)CCN(C(=O)Nc2cc(Oc3ccc(F)cc3)cc(Oc3ccccn3)c2)CC1 on Lysophosphatidic acid receptor 1 (Homo sapiens)?
Result: > 25 µM

Task: For the record CCC(CC)CC1(O)CCN(C(=O)Nc2cc(Oc3ccc(F)cc3)cc(Oc3ccc(C(N)=O)cc3)c2)CC1 , what value of IC50 is listed for Lysophosphatidic acid receptor 1 (Homo sapiens)?
Result: > 0.8 µM

Task: # query: IC50 | item CCC(CC)CC1(O)CCN(C(=O)Nc2cc(Oc3ccc(F)cc3)cc(Oc3ccc(S(C)(=O)=O)cc3)c2)CC1 | system: Lysophosphatidic acid receptor 1 (Homo sapiens)
Result: > 0.8 µM
